system: "in vitro" ruminal fluid cultures; experiment: Ammonia (N-NH3) concentration in "in vitro" ruminal fluid cultures; assay type: cell-based, calves; conditions: 12 h
This section presents molecules with their documented N-NH3 concentration values.
measuredQuantity: N-NH3 concentration

C[C@@H]1O[C@@H](OC[C@H]2O[C@@H](Oc3cc(O)c4c(c3)O[C@H](c3ccc(O)cc3)CC4=O)[C@H](O)[C@@H](O)[C@@H]2O)[C@H](O)[C@H](O)[C@H]1O [Isonaringin, isonaringin]; 165.46 mg/L
COc1ccc([C@@H]2CC(=O)c3c(O)cc(O[C@@H]4O[C@H](CO)[C@@H](O)[C@H](O)[C@H]4O[C@@H]4O[C@@H](C)[C@H](O)[C@@H](O)[C@H]4O)cc3O2)cc1O [Neohesperidin, neohesperidin]; 168.38 mg/L
